Values compiled from ChEMBL document CHEMBL1137744.

- Protocol Text: Selectivity index, ratio of CC50 for human MT4 cells to EC50 for HIV1 3B
- Type: toxicity, cell-based
- Experimental Parameters: read-out: Ratio CC50/EC50
This listing pairs compounds with measured selectivity ratio.

Recorded results for 3 compounds are shown here.
Cc1ccc(N(C(=O)c2cccc(Cl)c2Cl)C(=S)OCCN2C(=O)c3ccccc3C2=O)cc1 | 175
O=C1c2ccccc2C(=O)N1CCOC(=S)N(C(=O)c1ccc2ccccc2c1)c1ccc(Cl)cc1 | 1850
O=C1c2ccccc2C(=O)N1CCOC(=S)N(C(=O)c1c(F)cccc1F)c1ccc(Cl)cc1 | 1950

In plain terms, O=C1c2ccccc2C(=O)N1CCOC(=S)N(C(=O)c1ccc(C(F)(F)F)cc1)c1ccc(Cl)cc1 has a documented selectivity ratio of 2000

In plain terms, COc1cccc(OC)c1C(=O)N(C(=S)OCCN1C(=O)c2ccccc2C1=O)c1ccc(C)cc1 has a documented selectivity ratio of 1.6

In plain terms, O=C1c2ccccc2C(=O)N1CCOC(=S)N(C(=O)c1cc([N+](=O)[O-])ccc1Cl)c1ccc(Cl)cc1 has a documented selectivity ratio of 643

In plain terms, O=C1c2ccccc2C(=O)N1CCOC(=S)N(C(=O)c1cccc2ccccc12)c1ccc(Cl)cc1 has a documented selectivity ratio of 200

In plain terms, O=C1c2ccccc2C(=O)N1CCOC(=S)N(C(=O)c1ccccc1[N+](=O)[O-])c1ccc(Cl)cc1 has a documented selectivity ratio of 300

In plain terms, O=C1c2ccccc2C(=O)N1CCOC(=S)N(C(=O)c1cc(Cl)cc(Cl)c1)c1ccc(Cl)cc1 has a documented selectivity ratio of 4000

In plain terms, O=C1c2ccccc2C(=O)N1CCOC(=S)N(C(=O)c1ccco1)c1ccc(Cl)c(Cl)c1 has a documented selectivity ratio of 145

In plain terms, Cc1ccc(N(C(=O)c2cccc(C)c2)C(=S)OCCN2C(=O)c3ccccc3C2=O)cc1 has a documented selectivity ratio of > 2500

---

- Test system: Human immunodeficiency virus 1
- Protocol Text: Antiviral activity against HIV1 3B infected in human MT4 cells assessed as inhibition of virus-induced cytopathogenicity by MTT assay
- Type: functional, organism-based
- Experimental Parameters: Human immunodeficiency virus 1, 3B
Quantity Kind: log10 EC50 (log10 of the value in nM)
A value of 2 here means EC50 of 100 in nM, since values are log10.

In plain terms, Cc1cc(C(=O)N(C(=S)OCCN2C(=O)c3ccccc3C2=O)c2ccc(Cl)cc2)ccc1Br has a documented log10 EC50 of 0.85

---

- Protocol Text: Selectivity index, ratio of CC50 for human MT4 cells to EC50 for HIV1 3B
- Format: toxicity, cell-based
- Experimental Parameters: read-out: Ratio CC50/EC50
Quantity Kind: selectivity ratio
The response must contain the number and no unit.

Recorded results for 3 compounds are shown here.
Cc1ccc(N(C(=O)c2cccc([N+](=O)[O-])c2)C(=S)OCCN2C(=O)c3ccccc3C2=O)cc1 | 5000
O=C1c2ccccc2C(=O)N1CCOC(=S)N(C(=O)c1ccc(F)cc1F)c1ccc(Cl)cc1 | 5200
O=C1c2ccccc2C(=O)N1CCOC(=S)N(C(=O)c1cccc(F)c1F)c1ccc(Cl)cc1 | 7250

In plain terms, Cc1ccc(N(C(=O)c2c(Cl)cccc2Cl)C(=S)OCCN2C(=O)c3ccccc3C2=O)cc1 has a documented selectivity ratio of 2.4

In plain terms, O=C1c2ccccc2C(=O)N1CCOC(=S)N(C(=O)c1ccc(Cl)c([N+](=O)[O-])c1)c1ccc(Cl)cc1 has a documented selectivity ratio of 2400

In plain terms, Cc1ccc(C(=O)N(C(=S)OCCN2C(=O)c3ccccc3C2=O)c2ccc(C)cc2)cc1 has a documented selectivity ratio of 4150
